Data credit: patent US20030068675

assay_system: ZFP SBS#242 (synthetic, UniProt P08047)
Sequence (P08047 other isoform, or with tags, fused parts or gaps): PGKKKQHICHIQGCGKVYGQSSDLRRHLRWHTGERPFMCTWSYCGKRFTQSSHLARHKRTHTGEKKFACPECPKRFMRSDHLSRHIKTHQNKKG
test_description: EMSA
run_parameters: tags: MBP fusion
metric: pKd
Hey, just a heads up that pKd is the negative log base 10 of the concentration in molar.

# pKd of GGGGGTGCT (dsDNA) DNA 1: GGGGGTGCT DNA 2: AGCACCCCC = 9.00
